System: Abutilon theophrasti
protocol summary: Post-emergence herbicidal effect
Type: in vivo
condition parameters: 320 g/ha, assessed visually after about 3 weeks vs untreated controls
Each entry below carries its reported post-emergence efficacy ABUTH.

# compound, post-emergence efficacy ABUTH, %
rows = [
    ("CN=C(C)c1cnc(NC2CCCc3sc(C)cc32)nc1N (centres unmarked) [compound 352]", 90),
    ("Cc1cc2c(s1)C(Nc1ncc3c(n1)CCCC3=O)CCC2 (racemic) [compound 8]", 80),
    ("Cc1cc2c(s1)CCCC2Nc1ncc(C(N)=O)c(N)n1 (racemic) [compound 267]", 80),
    ("Cc1cc2c(s1)CCCC2Nc1ncc(-c2ccccc2)c(N)n1 (racemic) [compound 296]", 70),
    ("Nc1nc(NC2CCCc3occc32)ncc1C(F)(F)F (racemic) [compound 7]", 40),
    ("Nc1nc(N[C@@H]2CCCc3sccc32)ncc1C(F)(F)F [compound 46]", 40),
    ("Cc1cc2c(s1)CCCC2Nc1nc(N)c(S(C)(=O)=O)c(Cl)n1 (racemic) [compound 16]", 90),
    ("CC(=O)c1cnc(NC2CCCc3sc(C)cc32)nc1N (centres unmarked) [compound 283]", 90),
    ("Cc1cc2c(s1)CCC[C@H]2Nc1ncc(I)c(N)n1 [compound 173]", 90),
    ("CC(=NO)c1cnc(NC2CCCc3sc(C)cc32)nc1N (centres unmarked) [compound 286]", 90),
    ("Nc1nc(NC2CCCc3sc(Cl)cc32)ncc1C(F)(F)F (racemic) [compound 22]", 90),
    ("Cc1cc2c(s1)CCCC2Nc1ncc(C(F)(F)F)c(N)n1 (racemic) [compound 257]", 90),
    ("CC(=NO)c1cnc(NC2CCCc3sc(C)cc32)nc1N (racemic) [compound 341]", 90),
    ("Cc1cc2c(s1)CCCC2Nc1nc(N)c(-c2cccc(F)c2)c(C(F)F)n1 (racemic) [compound 302]", 60),
    ("Cc1cc2c(s1)CC(C)C2Nc1ncc(S(C)(=O)=O)c(N)n1 (racemic) [compound 17]", 100),
    ("C/C(=N\\OC(C)C)c1cnc(NC2CCCc3sc(C)cc32)nc1N (racemic) [compound 288]", 90),
    ("Cc1cc2c(s1)CCCC2Nc1ncc2c(n1)CCCC2=O (racemic) [compound 9]", 80),
    ("Cc1cc2c(s1)CCCC2Nc1ncc(SC(F)(F)F)c(C)n1 (racemic) [compound 80]", 90),
    ("Cc1cc2c(s1)CCCC2Nc1ncc(C(F)(F)F)c(N)n1 (racemic) [compound 61]", 90),
    ("Cc1cc2c(s1)CCCC2Nc1ncc(-c2cccc(C(F)(F)F)c2)c(N)n1 (racemic) [compound 294]", 70),
    ("CS(=O)(=O)c1cnc(N[C@@H]2CCCc3sccc32)nc1N [compound 24]", 100),
    ("CS(=O)(=O)c1cnc(NC2CCCc3ccsc32)nc1N (racemic) [compound 69]", 80),
    ("C=C(c1cnc(NC2CCCc3sc(C)cc32)nc1N)C(F)(F)F (racemic) [compound 275]", 90),
    ("Cc1cc2c(s1)CCC2Nc1ncc(S(C)(=O)=O)c(N)n1 (racemic) [compound 4]", 90),
    ("Cc1cc2c(s1)C(Nc1ncc(S(C)(=O)=O)c(N)n1)CCC2 (racemic) [compound 19]", 90),
    ("Cc1cc2c(s1)CCCC2Nc1nc(N)c(S(C)(=O)=O)c(C(F)F)n1 (racemic) [compound 287]", 80),
    ("Cc1cc2c(s1)CCCC2Nc1ncc(C(F)(F)F)c(N)n1 (racemic) [compound 11]", 100),
    ("Cc1cc2c(s1)CCCC2Nc1nc(N)c([S+](C)[O-])c(C(F)F)n1 (racemic) [compound 264]", 90),
    ("CO/N=C(/C)c1cnc(NC2CCCc3sccc32)nc1N (racemic) [compound 292]", 80),
    ("Cc1sc2c(c1C)C(Nc1ncc(C(F)(F)F)c(N)n1)CCC2 (centres unmarked) [compound 213]", 90),
    ("Cc1cc2c(s1)CCCC2Nc1nc(N)c(Br)c(C(F)F)n1 (racemic) [compound 284]", 90),
    ("C/C(=N/OCc1ccccc1)c1cnc(NC2CCCc3sc(C)cc32)nc1N (racemic) [compound 291]", 90),
    ("Cc1cc2c(s1)CCCC2Nc1ncc(-c2cncc(C(F)(F)F)c2)c(N)n1 (racemic) [compound 290]", 60),
    ("Cc1cc2c(s1)C(Nc1ncc(C(F)(F)F)c(N)n1)CCC2 (racemic) [compound 55]", 90),
    ("CNC(=O)c1cnc(NC2CCCc3sc(C)cc32)nc1N (racemic) [compound 266]", 80),
]

Value source: patent US10251395B2
